# TARGET_ENTITY: Galectin-8N (Homo sapiens)
# Construct: N and C respectively represent N-terminal side carbohydrate-recognition domain and C-terminal side carbohydrate-recognition domain; made in house
# Sequence (O00214 19-152 limits assumed): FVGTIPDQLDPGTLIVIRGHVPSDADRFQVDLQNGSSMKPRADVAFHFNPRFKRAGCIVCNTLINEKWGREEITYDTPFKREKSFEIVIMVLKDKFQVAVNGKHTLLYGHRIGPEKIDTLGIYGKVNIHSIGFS
# PROTOCOL: FAC affinity test on galectin-immobilized column
# Type: binding
# CONDITION_CONTEXT: pyridyl-aminated carbohydrate; galectin-8N immobilized 3.6 mg/ml; less than 5 μl = below interaction detection limit
MEASURE_NAME: V − V0 Value

Solved cases below.
| COMPOUND | MEASUREMENT |
| --- | --- |
| CC(=O)N[C@H]1[C@H](O[C@H]2[C@@H](O)[C@@H](COS(=O)(=O)O)O[C@@H](O[C@H]3[C@H](O)[C@@H](NC(C)=O)C(O)O[C@@H]3COS(=O)(=O)O)[C@@H]2O)O[C@H](COS(=O)(=O)O)[C@@H](O[C@@H]2O[C@H](CO)[C@H](O)[C@H](O)[C@H]2O)[C@@H]1O (stereo partly drawn) [L2L4] | <5.0 µL |
| CC(=O)N[C@H]1[C@H](O[C@H]2[C@@H](O)[C@@H](COS(=O)(=O)O)O[C@@H](O[C@H]3[C@H](O)[C@@H](NC(C)=O)C(O)O[C@@H]3COS(=O)(=O)O)[C@@H]2O)O[C@H](COS(=O)(=O)O)[C@@H](O)[C@@H]1O (stereo partly drawn) [G4L4, GlcNAc6S β1-3 Gal6S β1-4 GlcNAc6S] | <5.0 µL |
| CC(=O)NC1C(O)OC(COS(=O)(=O)[O-])C(OC2OC(COS(=O)(=O)[O-])C(O)C(OC3OC(COS(=O)(=O)[O-])C(OC4OC(COS(=O)(=O)[O-])C(O)C(O)C4O)C(O)C3NC(C)=O)C2O)C1O.[Na+].[Na+].[Na+].[Na+] (stereo not drawn) [L4L4] | <5.0 µL |
| CC(=O)N[C@H]1[C@H](O[C@H]2[C@@H](O)[C@@H](CO)OC(O)[C@@H]2O)O[C@H](CO)[C@@H](O[C@@H]2O[C@H](CO)[C@H](O)[C@H](O)[C@H]2O)[C@@H]1O (stereo partly drawn) [G2K1, Gal β1-4 GlcNAc β1-3 Gal] | <5.0 µL |
| CC(=O)NC1C(O)OC(COS(=O)(=O)O)C(OC2OC(COS(=O)(=O)O)C(O)C(OC3OC(COS(=O)(=O)O)C(OC4OC(CO)C(O)C(OC5(C(=O)O)CC(O)C(NC(C)=O)C(C(O)C(O)CO)O5)C4O)C(O)C3NC(C)=O)C2O)C1O (stereo not drawn) [SL2L4] | 26.5 ± 0.9 µL |

Shift focus to the following entry.
Prompt line: Recall the recorded V − V0 Value for CC(=O)N[C@H]1[C@H](O[C@H]2[C@@H](O)[C@@H](CO)O[C@@H](O[C@H]3[C@H](O)[C@@H](NC(C)=O)C(O)O[C@@H]3CO)[C@@H]2O)O[C@H](CO)[C@@H](O)[C@@H]1O (stereo partly drawn) [G1L1, GlcNAc β1-3 Gal β1-4 GlcNAc] with Galectin-8N (Homo sapiens) and state it.
Response line: <5.0 µL
